Target Or Test System: Ribonuclease HI (Escherichia coli (strain K12))
Test Method Notes: E. coli RNase HI inhibitors, dose response, biochemical, FRET RNA/DNA duplex cleavage (AID 365)
Measurement Parameters: E. coli RNase H, FRET RNA/DNA cleavage fluorescence
Activity calls are given as the source filed them. No rule for the calls is given here.
Observable: IC50

Some solved entries appear below for comparison.
>  <Compound>
Cc1sc(NC(=O)Cc2ccccc2)c(C(N)=O)c1C

>  <Observable>
IC50

>  <Experimental Value>
inactive

$$$$
>  <Compound>
Oc1c(Br)cc(/C=N/Nc2nnc3c(n2)[nH]c2ccccc23)c(Br)c1O

>  <Observable>
IC50

>  <Experimental Value>
4.3 µM

$$$$
>  <Compound>
CCOc1ccc(C(=O)Nc2ccc3c(c2)C(=O)c2ccccc2C3=O)cc1

>  <Observable>
IC50

>  <Experimental Value>
4 µM

$$$$
>  <Compound>
Cc1cc(O)c2c(c1O)C(=O)C13C(=C2O)C(=O)C2C(O)C1C1C(O)C3C(=O)C3=C(O)c4c(O)cc(C)c(O)c4C(=O)C321 (configuration not stated)

>  <Observable>
IC50

>  <Experimental Value>
inactive

$$$$
>  <Compound>
O=[N+]([O-])c1ccc2c(N=Nc3ccc4ccccc4c3O)c(O)cc(S(=O)(=O)O)c2c1

>  <Observable>
IC50

>  <Experimental Value>
3 µM

$$$$

--- query ---
Inquiry: Give its IC50 value. Item: C[C@]12Cc3cnc(-c4ccccc4)nc3C[C@@H]1CC[C@@H]1[C@@H]2CC[C@@]2(C)[C@H]1CC[C@]2(C)O
Reply text: inactive

###

Target Or Test System: Ribonuclease HI (Escherichia coli (strain K12))
Test Method Notes: E. coli RNase HI inhibitors, dose response, biochemical, FRET RNA/DNA duplex cleavage (AID 365)
Measurement Parameters: E. coli RNase H, FRET RNA/DNA cleavage fluorescence
The source made the active and inactive calls. No rule for the calls is given here.
// classify into true (active), false (inactive)

Below, 9 compounds whose answers are already recorded.
>  <Compound>
Cc1cc(=O)c2c(O)c3c(O)cc(O)c4c5c(O)cc(O)c6c(O)c7c(=O)cc(C)c8c1c2c(c34)c(c65)c78

>  <Category>
false

$$$$
>  <Compound>
CCOc1cccc(N2C(=O)/C(=C/c3cn(CC(=O)OC)c4ccccc34)C(=O)NC2=S)c1

>  <Category>
true

$$$$
>  <Compound>
Nc1c(S(=O)(=O)O)cc(Nc2cccc(S(N)(=O)=O)c2)c2c1C(=O)c1ccccc1C2=O

>  <Category>
false

$$$$
>  <Compound>
CCCCCCCCCCCCCCCC(=O)OCC1OC(n2ccc(N)nc2=O)C(O)C1O (stereo not given)

>  <Category>
true

$$$$
>  <Compound>
O=C(O)C1CCCCC1c1c2ccc(=O)c(O)c-2oc2c(O)c(O)ccc12 (stereo not given)

>  <Category>
true

$$$$
>  <Compound>
Oc1cc(CN2COc3ccccc32)c(O)cc1CNC1CCCCC1

>  <Category>
false

$$$$
>  <Compound>
CCc1c(O)c2c(c(O)c1C(C)=O)C(=O)c1c(cc(O)c(C(=O)O)c1C(=O)O)C2=O

>  <Category>
false

$$$$
>  <Compound>
Cc1cc(-c2ccco2)c(C#N)c(SCC(=O)c2ccc(O)c(O)c2)n1

>  <Category>
true

$$$$
>  <Compound>
C[C@@H]1[C@H](O)c2c(c3c(c4c(-c5ccccc5)cc(=O)oc24)OC(C)(C)C=C3)O[C@@H]1C

>  <Category>
true

$$$$

Inquiry: // param item: CN(C)CN1CSC(=S)N(CN(C)C)C1 ; yields the recorded call
Reply text: false
